Target: 5-hydroxytryptamine receptor 1A (Rattus norvegicus)
Sequence (P19327 whole entry): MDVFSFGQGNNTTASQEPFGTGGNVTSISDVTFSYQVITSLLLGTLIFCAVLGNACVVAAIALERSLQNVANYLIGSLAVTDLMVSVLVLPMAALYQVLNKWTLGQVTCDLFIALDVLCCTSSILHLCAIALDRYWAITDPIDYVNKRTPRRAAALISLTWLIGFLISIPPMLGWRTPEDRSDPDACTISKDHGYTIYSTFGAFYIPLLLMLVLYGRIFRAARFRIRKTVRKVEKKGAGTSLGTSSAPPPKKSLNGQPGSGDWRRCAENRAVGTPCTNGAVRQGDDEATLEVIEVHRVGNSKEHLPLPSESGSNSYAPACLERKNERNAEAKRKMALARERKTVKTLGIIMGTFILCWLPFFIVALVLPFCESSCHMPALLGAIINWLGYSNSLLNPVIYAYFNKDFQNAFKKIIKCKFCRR
Test: Inhibition activity against 5-hydroxytryptamine 1A receptor in rat hippocampus membranes using radio binding assays
# reported pIC50; entries follow
To interpret pIC50, take it as minus log10 of a concentration measured in moles per litre.

Reference set, count: 3
# smiles_record, numeric_readout
data = [
    ("Cc1nc(-c2ccc(-c3ccc(C(=O)Nc4ccc(OCCF)c(N5CCN(C)CC5)c4)cc3)c(C)c2)no1", 5.30),
    ("COc1ccc(NC(=O)c2ccc(-c3ccc(C(N)=O)cc3C)cc2)cc1N1CCN(C)CC1", 7.24),
    ("Cc1nnc(-c2ccc(-c3ccc(C(=O)Nc4ccc(OS(C)(=O)=O)c(N5CCN(C)CC5)c4)cc3)c(C)c2)o1", 5.15),
]

Q: Could you share which pIC50 value was measured for `COc1ccc(NS(=O)(=O)c2ccc(-c3ccc(-c4nnc(C)o4)cc3C)cc2)cc1N1CCN(C)CC1` ?
Ans: 6.15

Q: Please give the result for `COc1ccc(NC(=O)c2ccc(-c3ccc(-c4noc(C)n4)cc3C)cc2)cc1N1CCN(C)CC1` too.
Ans: 6.37

Q: Please give the result for `COc1ccc(NC(=O)c2ccc(-c3ccc(C(=N)N)cc3C)cc2)cc1N1CCN(C)CC1` too.
Ans: 7.64

###

# reported Control; entries follow
Biological target: Serotonin (5-HT) receptor (Homo sapiens) (UniProt P30939+P41595+Q13639+P28222+P46098+P08908+P28221+P28223+P28335+P28566+P34969+P50406+P47898+A5X5Y0+O95264+Q70Z44+Q8WXA8)
Assay: 5-hydroxytryptamine level in K+ induced 5-hydroxytryptamine release in guinea pig cortex.
Assay type: functional, tissue-based
Conditions: Cavia porcellus, target entry is the homologue from another species
Report as: number unit

Reference set, count: 3
# smiles_record, Control
measured = [
    ("Cc1nc(-c2ccc(-c3ccc(C(=O)Nc4ccc(O)c(N5CCN(C)CC5)c4)cc3)c(C)c2)no1", "122%"),
    ("Cc1nc(-c2ccc(-c3ccc(C(=O)Nc4ccc(OCCF)c(N5CCN(C)CC5)c4)cc3)c(C)c2)no1", "107%"),
    ("Cc1nc(-c2ccc(-c3ccc(C(=O)N4CCc5cc6c(cc54)C4(CCN(C)CC4)CO6)cc3)c(C)c2)no1", "134%"),
]

Q: Could you share which Control value was measured for `Cc1nnc(-c2ccc(-c3ccc(C(=O)Nc4ccc(OS(C)(=O)=O)c(N5CCN(C)CC5)c4)cc3)c(C)c2)o1` ?
Ans: 166%

Q: Please give the result for `Cc1nnc(-c2ccc(-c3ccc(C(=O)Nc4ccc(O)c(N5CCN(C)CC5)c4)cc3)c(C)c2)o1` too.
Ans: 147%

Q: Please give the result for `COc1ccc(NC(=O)c2ccc(-c3ccc(-c4nnc(C)o4)cc3C)cc2)cc1N1CCN(C)CC1` too.
Ans: 147%

Q: Please give the result for `COc1ccc(NC(=O)c2ccc(-c3ccc(C(N)=O)cc3C)cc2)cc1N1CCN(C)CC1` too.
Ans: 162%

Q: Please give the result for `COc1ccc(NS(=O)(=O)c2ccc(-c3ccc(-c4nnc(C)o4)cc3C)cc2)cc1N1CCN(C)CC1` too.
Ans: 155%

Q: Please give the result for `COc1ccc(NC(=O)c2ccc(-c3ccc(C(=N)N)cc3C)cc2)cc1N1CCN(C)CC1` too.
Ans: 155%
